Biological target: Organic anion transporter 3 (Homo sapiens)
Sequence (Q8TCC7 whole entry): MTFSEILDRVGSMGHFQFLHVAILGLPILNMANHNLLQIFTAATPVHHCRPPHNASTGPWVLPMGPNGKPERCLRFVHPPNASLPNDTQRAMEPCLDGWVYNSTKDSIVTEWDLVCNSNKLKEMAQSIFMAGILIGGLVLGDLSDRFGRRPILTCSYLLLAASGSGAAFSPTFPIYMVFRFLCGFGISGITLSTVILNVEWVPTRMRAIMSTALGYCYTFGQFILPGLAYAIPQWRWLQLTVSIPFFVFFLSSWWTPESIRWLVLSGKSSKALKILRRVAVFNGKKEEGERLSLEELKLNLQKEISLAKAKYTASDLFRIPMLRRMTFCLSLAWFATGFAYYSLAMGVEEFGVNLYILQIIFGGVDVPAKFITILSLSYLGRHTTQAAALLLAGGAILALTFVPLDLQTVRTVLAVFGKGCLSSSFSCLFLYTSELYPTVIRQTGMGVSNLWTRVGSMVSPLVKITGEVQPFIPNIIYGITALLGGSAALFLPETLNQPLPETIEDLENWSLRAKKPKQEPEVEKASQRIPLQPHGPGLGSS
measuredAttribute: pIC50
Answer as the number alone; pIC50 is minus log10 of concentration in mol/L.

GET /values?readout=pIC50&item= C[C@]12CCCN1CC1=NNC(=O)c3cc(F)cc4[nH]c2c1c34
4.62

---

assay: Unbound fraction in human plasma; type: ADME, cell-free
measuredAttribute: fraction unbound
Give the figure only, with no unit attached.

GET /values?readout=fraction unbound&item= C[C@]12CCCN1CC1=NNC(=O)c3cc(F)cc4[nH]c2c1c34 [PAMIPARIB]
0.043

---

experiment: Volume of distribution at steady state in Sprague-Dawley rat at 2 mg/kg, iv by LC-MS/MS analysis; assay type: ADME, organism-based; conditions: in vivo, read-out: Vdss
measuredAttribute: Vd (L/kg)
Express the result in L/kg but write the number alone.

GET /values?readout=Vd&item= C[C@]12CCCN1CC1=NNC(=O)c3cc(F)cc4[nH]c2c1c34
6.92

---

assay: Drug level in C57BL/6 mouse plasma at 10 mg/kg, po after 4 hrs; type: ADME, organism-based
measuredAttribute: concentration at 4 h (ng/mL)
Express the result in ng/mL but write the number alone.

GET /values?readout=concentration at 4 h&item= C[C@]12CCCN1CC1=NNC(=O)c3cc(F)cc4[nH]c2c1c34
707

---

assay: AUC (0 to infinity) in Sprague-Dawley rat at 2 mg/kg, iv by LC-MS/MS analysis; format: ADME, organism-based; design: time infinity, route intravenous, dose 2 mg/kg; conditions: in vivo
measuredAttribute: AUC(0-inf)
Entry format: amount then unit.

GET /values?readout=AUC(0-inf)&item= C[C@]12CCCN1CC1=NNC(=O)c3cc(F)cc4[nH]c2c1c34 [PAMIPARIB]
1480 ng·h/mL

---

assay: Volume of distribution at steady state in ICR mouse at 1 mg/kg, iv by LC-MS/MS analysis; assay type: ADME, organism-based; details: in vivo, read-out: Vdss
measuredAttribute: Vd (L/kg)
Express the result in L/kg but write the number alone.

GET /values?readout=Vd&item= C[C@]12CCCN1CC1=NNC(=O)c3cc(F)cc4[nH]c2c1c34
5.65

---

target: Cytochrome P450 2D6 (Homo sapiens, UniProt P10635)
Sequence (P10635 whole entry): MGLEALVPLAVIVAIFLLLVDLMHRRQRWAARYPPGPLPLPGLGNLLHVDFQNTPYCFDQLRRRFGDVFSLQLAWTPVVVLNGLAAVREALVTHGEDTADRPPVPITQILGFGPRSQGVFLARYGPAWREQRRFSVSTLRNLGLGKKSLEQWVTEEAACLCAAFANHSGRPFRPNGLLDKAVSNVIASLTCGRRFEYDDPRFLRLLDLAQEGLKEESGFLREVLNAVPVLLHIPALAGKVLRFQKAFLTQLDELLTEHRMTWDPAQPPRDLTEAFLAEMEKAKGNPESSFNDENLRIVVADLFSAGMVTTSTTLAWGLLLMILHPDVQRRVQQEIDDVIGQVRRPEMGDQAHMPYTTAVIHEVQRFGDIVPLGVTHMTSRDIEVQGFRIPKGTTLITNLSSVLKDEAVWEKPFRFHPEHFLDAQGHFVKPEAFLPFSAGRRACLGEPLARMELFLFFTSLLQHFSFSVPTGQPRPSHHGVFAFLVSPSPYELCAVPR
pIC50: −log10 of the molar value.
measuredAttribute: pIC50

GET /values?readout=pIC50&item= C[C@]12CCCN1CC1=NNC(=O)c3cc(F)cc4[nH]c2c1c34
< 5.00

---

experiment: Clearance in mouse liver microsomes; assay type: ADME, Microsome; details: read-out: CLH
Overview of reported CLint scaled across a group of compounds:
Express the result in mL/min/kg but write the number alone.

The cases that follow already have their CLint scaled on record.
GET /values?readout=CLint scaled&item= CC(C)N1CC2=NNC(=O)c3cccc4[nH]c(c2c34)C1
174

GET /values?readout=CLint scaled&item= CN1CC2=NNC(=O)c3cc(F)cc4[nH]c(c2c34)C1
275

GET /values?readout=CLint scaled&item= O=C1NN=C2CN(C(=O)C3CC3)Cc3[nH]c4cccc1c4c32
250

Let us move to another entry and its CLint scaled.
GET /values?readout=CLint scaled&item= C[C@]12CCCN1CC1=NNC(=O)c3cc(F)cc4[nH]c2c1c34
12.9

---

test: Half life in Beagle dog at 1 mg/kg, iv by LC-MS/MS analysis; type: ADME, organism-based, Canis lupus familiaris; details: in vivo
measuredAttribute: half-life (h)
Express the result in h but write the number alone.

GET /values?readout=half-life&item= C[C@]12CCCN1CC1=NNC(=O)c3cc(F)cc4[nH]c2c1c34 [PAMIPARIB]
2.07

---

target: Solute carrier family 22 member 6 (Homo sapiens, UniProt Q4U2R8); experiment: Inhibition of OAT1 (unknown origin)
Sequence (Q4U2R8 whole entry): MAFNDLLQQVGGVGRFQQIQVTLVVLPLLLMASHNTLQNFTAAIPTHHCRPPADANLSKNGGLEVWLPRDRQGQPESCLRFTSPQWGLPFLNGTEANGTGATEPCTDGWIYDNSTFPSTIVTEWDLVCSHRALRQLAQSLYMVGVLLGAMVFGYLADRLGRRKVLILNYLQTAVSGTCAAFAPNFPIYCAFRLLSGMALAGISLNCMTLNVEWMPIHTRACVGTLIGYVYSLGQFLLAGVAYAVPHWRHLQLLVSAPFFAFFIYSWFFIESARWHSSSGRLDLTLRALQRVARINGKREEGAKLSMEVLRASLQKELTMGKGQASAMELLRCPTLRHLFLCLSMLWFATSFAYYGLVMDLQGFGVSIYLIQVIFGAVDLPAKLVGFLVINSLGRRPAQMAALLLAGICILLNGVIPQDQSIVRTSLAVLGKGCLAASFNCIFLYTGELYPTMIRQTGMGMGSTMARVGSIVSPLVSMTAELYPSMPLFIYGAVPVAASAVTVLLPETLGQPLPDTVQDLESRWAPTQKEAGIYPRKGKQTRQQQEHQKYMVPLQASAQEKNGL
measuredAttribute: pIC50
Answer as the number alone; pIC50 is minus log10 of concentration in mol/L.

GET /values?readout=pIC50&item= C[C@]12CCCN1CC1=NNC(=O)c3cc(F)cc4[nH]c2c1c34
4.32

---

molecular target: Poly [ADP-ribose] polymerase 1 (Homo sapiens, UniProt P09874); assay: Inhibition of PARP-1 in human HeLa cells incubated for 18 hrs in presence of H2O2
Sequence (P09874 whole entry): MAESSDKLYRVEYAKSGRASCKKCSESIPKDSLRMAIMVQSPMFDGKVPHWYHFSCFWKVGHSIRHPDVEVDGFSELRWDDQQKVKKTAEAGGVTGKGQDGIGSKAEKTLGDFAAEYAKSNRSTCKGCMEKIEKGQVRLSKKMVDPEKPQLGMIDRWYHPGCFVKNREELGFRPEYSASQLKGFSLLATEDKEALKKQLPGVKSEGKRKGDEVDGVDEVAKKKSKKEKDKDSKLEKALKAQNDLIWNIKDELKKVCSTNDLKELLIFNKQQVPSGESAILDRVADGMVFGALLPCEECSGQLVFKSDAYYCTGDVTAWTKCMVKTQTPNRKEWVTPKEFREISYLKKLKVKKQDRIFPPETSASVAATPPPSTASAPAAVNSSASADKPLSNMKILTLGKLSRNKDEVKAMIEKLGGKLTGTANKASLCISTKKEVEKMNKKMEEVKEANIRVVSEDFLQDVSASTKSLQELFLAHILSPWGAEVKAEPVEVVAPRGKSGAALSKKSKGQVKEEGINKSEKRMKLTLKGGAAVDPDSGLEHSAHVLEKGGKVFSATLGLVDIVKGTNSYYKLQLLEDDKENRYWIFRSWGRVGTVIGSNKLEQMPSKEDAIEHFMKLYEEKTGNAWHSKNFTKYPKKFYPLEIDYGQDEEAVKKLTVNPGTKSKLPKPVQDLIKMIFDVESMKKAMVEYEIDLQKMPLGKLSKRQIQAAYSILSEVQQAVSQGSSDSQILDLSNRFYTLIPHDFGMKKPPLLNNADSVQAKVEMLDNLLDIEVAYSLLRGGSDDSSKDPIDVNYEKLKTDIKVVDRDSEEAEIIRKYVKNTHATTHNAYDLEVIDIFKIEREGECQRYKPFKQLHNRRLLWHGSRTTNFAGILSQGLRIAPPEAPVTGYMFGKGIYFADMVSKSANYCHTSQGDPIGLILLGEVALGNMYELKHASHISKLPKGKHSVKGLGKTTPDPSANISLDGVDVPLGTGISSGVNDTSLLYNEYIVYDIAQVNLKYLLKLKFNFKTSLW
measuredAttribute: EC50 (nM)
Express the result in nM but write the number alone.

GET /values?readout=EC50&item= CC1(C)CC2=NNC(=O)c3cccc4c3c2c(n4CCO)C1
176

GET /values?readout=EC50&item= CC1(C)CCc2[nH]c3cc(F)cc4c3c2C1=NNC4=O
45.5

GET /values?readout=EC50&item= CC1(C)C(C(=O)N2CC3=NNC(=O)c4cc(F)cc5[nH]c(c3c45)C2)C1(C)C
16.6

GET /values?readout=EC50&item= CC1(C(=O)N2CC3=NNC(=O)c4cc(F)cc5[nH]c(c3c45)C2)CC1
15.4

GET /values?readout=EC50&item= NC1(C(=O)N2CC3=NNC(=O)c4cc(F)cc5[nH]c(c3c45)C2)CC1
22

GET /values?readout=EC50&item= O=C1NN=C2CN(C(=O)C3(O)CC3)Cc3[nH]c4cc(F)cc1c4c32
3.5

GET /values?readout=EC50&item= CC1CC2=NNC(=O)c3cc(F)cc4[nH]c(c2c34)C1 (stereo not drawn)
2.7

---

test: AUC (0 to infinity) in Beagle dog at 1 mg/kg, iv by LC-MS/MS analysis; assay type: ADME, organism-based, Canis lupus familiaris; set-up: time infinity, route intravenous, dose 1 mg/kg; conditions: in vivo
measuredAttribute: AUC(0-inf) (ng·h/mL)
Express the result in ng·h/mL but write the number alone.

GET /values?readout=AUC(0-inf)&item= C[C@]12CCCN1CC1=NNC(=O)c3cc(F)cc4[nH]c2c1c34 [PAMIPARIB]
1080

---

assay: Half life in Sprague-Dawley rat at 5 mg/kg, po by LC-MS/MS analysis; details: in vivo
measuredAttribute: half-life (h)
Express the result in h but write the number alone.

GET /values?readout=half-life&item= C[C@]12CCCN1CC1=NNC(=O)c3cc(F)cc4[nH]c2c1c34
5.5

---

experiment: Unbound fraction in rat plasma; type: ADME, cell-free
measuredAttribute: fraction unbound
Give the figure only, with no unit attached.

GET /values?readout=fraction unbound&item= C[C@]12CCCN1CC1=NNC(=O)c3cc(F)cc4[nH]c2c1c34
0.151

---

assay: AUC (0 to 24 hrs) in rat at 5 mg/kg, po by LC-MS/MS analysis; format: ADME, organism-based; set-up: time < 24 hr, route oral, dose 5 mg/kg; conditions: in vivo
measuredAttribute: AUC(0-t) at 24 h (ng·h/mL)
Express the result in ng·h/mL but write the number alone.

GET /values?readout=AUC(0-t) at 24 h&item= CC(C)N1CC2=NNC(=O)c3cccc4[nH]c(c2c34)C1
141

---

molecular target: Cytochrome P450 2C9 (Homo sapiens, UniProt P11712)
Sequence (P11712 whole entry): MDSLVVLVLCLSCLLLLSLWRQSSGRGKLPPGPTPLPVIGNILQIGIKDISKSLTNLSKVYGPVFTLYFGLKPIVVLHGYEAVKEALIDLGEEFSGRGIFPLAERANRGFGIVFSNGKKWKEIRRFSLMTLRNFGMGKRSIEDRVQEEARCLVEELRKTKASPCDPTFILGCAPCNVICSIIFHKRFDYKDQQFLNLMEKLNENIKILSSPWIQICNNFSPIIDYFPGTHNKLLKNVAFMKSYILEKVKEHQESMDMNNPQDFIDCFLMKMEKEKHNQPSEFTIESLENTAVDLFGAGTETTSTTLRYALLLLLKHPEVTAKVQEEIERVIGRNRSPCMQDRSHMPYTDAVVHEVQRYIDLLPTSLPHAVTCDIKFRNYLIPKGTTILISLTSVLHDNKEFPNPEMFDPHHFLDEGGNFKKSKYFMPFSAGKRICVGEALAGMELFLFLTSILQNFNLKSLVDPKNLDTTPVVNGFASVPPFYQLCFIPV
pIC50: −log10 of the molar value.
measuredAttribute: pIC50

Record lookup: for Cytochrome P450 2C9 (Homo sapiens, UniProt P11712), what pIC50 belongs to C[C@]12CCCN1CC1=NNC(=O)c3cc(F)cc4[nH]c2c1c34 ?
< 5.00

---

assay: AUC ( 0 to infinity) in Sprague-Dawley rat at 5 mg/kg, po by LC-MS/MS analysis; conditions: in vivo
measuredAttribute: AUC(0-inf) (ng·h/mL)
Express the result in ng·h/mL but write the number alone.

GET /values?readout=AUC(0-inf)&item= C[C@]12CCCN1CC1=NNC(=O)c3cc(F)cc4[nH]c2c1c34 [PAMIPARIB]
3470

---

tested on: SK-BR-3; assay: Antiproliferation activity against human SK-BR-3 cells incubated for 7 days by CellTiter-Glo luminescent cell viability assay; format: functional, cell-based; settings: SK-BR-3, 168 h
pEC50: −log10 of the molar value.
measuredAttribute: pEC50

GET /values?readout=pEC50&item= C[C@]12CCCN1CC1=NNC(=O)c3cc(F)cc4[nH]c2c1c34
< 5.00
